B1: CLCN6 (parent)
chain: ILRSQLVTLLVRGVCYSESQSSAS

# Variants of: B1
# assay: protein stability index of a GFP-peptide fusion (GPS, HEK-293T) (PSI 1-6); higher = more stable;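 further: lentivirally expressed fusions sorted by FACS into six bins by GFP to DsRed ratio, PSI derived from sequencing read proportions per bin multiplied by bin number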
# test-settings: c terminus: a fixed tail appended
result-type: protein stability index

>>> df
    mutations  test_value
 0        L2F        2.44
 1       V14K        2.87
 2       V11H        2.78
 3       V11S        1.78
 4       Q20W        2.38
 5       E18L        2.71
 6        L9K        1.99
 7        L9E        1.94
 8        L6T           2
 9        S4E        3.85
10        L9H        1.39
